System under test: T1, dNELF-E (Drosophila, UniProt P92204 1-280)
T1 sequence: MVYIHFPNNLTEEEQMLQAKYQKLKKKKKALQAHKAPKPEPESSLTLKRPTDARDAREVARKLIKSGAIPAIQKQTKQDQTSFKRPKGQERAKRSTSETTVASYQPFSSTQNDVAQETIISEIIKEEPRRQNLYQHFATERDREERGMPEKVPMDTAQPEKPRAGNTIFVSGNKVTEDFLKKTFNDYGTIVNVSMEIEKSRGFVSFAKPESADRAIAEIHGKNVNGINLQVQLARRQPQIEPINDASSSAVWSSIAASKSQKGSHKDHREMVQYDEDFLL
Assay method text: fluorescence polarization; 10 mM HEPES-NaOH pH 7.5, 100 mM NaCl, 25 mM KCl, 1 mM MgCl2, 0.02% Tween-20, 0.01% IGEPAL CA-630, 10 µg/ml yeast tRNA; 2 nM RNA, 0-2000 nM protein, 1-2 h, binding temperature not stated; gel 5% acrylamide 0.5X TBE at 4 °C
Measurement setup: protein: recombinant; tags: N-terminal His6 (pHIS-parallel1); label: 3' fluorescein (5-thiosemicarbazide); hairpin with UCU bulge
Reported property: pKd
Hey, just a heads up that pKd is the negative log base 10 of the concentration in molar.

INPUT: // pKd lookup, key: HIV-1 TAR+A (structured_RNA) RNA: GGUCUCUCUGGUUAGACCAGAUCUGAGCCUGAGGAGCUCUCUGGCUAACUAGGGAACC
OUTPUT: 7.09

# next binder below
INPUT: // pKd lookup, key: HIV-1 TAR (structured_RNA) RNA: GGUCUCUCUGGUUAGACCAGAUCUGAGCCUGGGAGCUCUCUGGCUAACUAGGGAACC
OUTPUT: 6.89
